# Tested on: UDP-N-acetylbacillosamine N-acetyltransferase PglD (Campylobacter jejuni)
# Measurement description: blockers of PglD enzyme activity – biochemical, DTNB colorimetric, single point, primary screen (AID 602405)
# Condition info: purified PglD enzyme, DTNB colorimetric CoA detection; at 12.5 µM
Hit rate of the full screen: of about 360,000 compounds, about 350 (0.097%) were called active. No stated cut-off is given here; in the data, active means inhibition above about 16% (passing the limit was not always enough); inconclusive means no clear call, values can overlap the other calls; inactive means below that. Only a selection was taken, and actives are over-represented in it overall.
Assign a class; possible classes are label 1 for active, label 0 for inactive

Problem: Status in this test for O=C(O)[C@H]1[C@H](CO)[C@H]2Cn3c(cccc3=O)[C@@H]1N2C(=O)c1ccccc1 ?
Solution: label 0

Problem: Same question, C/C=C/c1ccc([C@H]2[C@H](CO)N3CCCCN(C(=O)Cc4ccncc4)C[C@@H]23)cc1 this time
Solution: label 0

Problem: Same question, C[C@H](CO)N1C[C@H](C)[C@H](CN(C)C(=O)Oc2ccc3ccccc3c2)OCc2cnnn2CCCC1=O this time
Solution: label 0

Problem: Same question, c1ccc2sc(N3CCNCC3)nc2c1 this time
Solution: label 1

Problem: Same question, COC(=O)[C@H]1[C@H](CO)[C@H]2Cn3c(ccc(-c4ccccc4F)c3=O)[C@@H]1N2C(=O)C1CCC1 this time
Solution: label 0

Problem: Same question, COc1ccc(-c2ccc([C@H]3[C@H](CO)N4CCCCN(C(=O)Cc5ccncc5)C[C@@H]34)cc2)cc1 this time
Solution: label 0

Problem: Same question, CC(=CCOc1ccc2ccc(=O)oc2c1)C1=CC(=O)C(C)(C)O1 this time
Solution: label 0
